system: P. falciparum V1/S (N51I + C59R + S108 + I164L); test: microbe, parasite or virus in culture; format: cell-based, Plasmodium falciparum; conditions: Plasmodium falciparum, read-out: IC50 P. falciparum V1/S
Please provide measured pIC50 for the entries that follow.
API: returns pIC50 as number; meaning -log10 of concentration in mol/L.

// query Reported pIC50, compound CCc1nc(N)nc(N)c1OCCCc1cn(-c2ccc(C(=O)O)cc2)nn1 : ____
// result 5.33

// query Reported pIC50, compound CCc1nc(N)nc(N)c1OCc1csc(-c2ccc(OC)cc2)n1 : ____
// result 4.89

// query Reported pIC50, compound CCc1nc(N)nc(N)c1OCc1cc(-c2ccc(F)cc2)no1 : ____
// result 4.72

// query Reported pIC50, compound CCc1nc(N)nc(N)c1OCc1csc(-c2ccc(C(=O)OC)cc2)n1 : ____
// result 4.80

// query Reported pIC50, compound CCc1nc(N)nc(N)c1OCCCc1cc(-c2cccc(C(F)(F)F)c2)no1 : ____
// result 4.75

// query Reported pIC50, compound CCc1nc(N)nc(N)c1OCc1cc(-c2ccc(Cl)cc2)no1 : ____
// result 4.68

* * *

Please provide measured pKi for the entries that follow.
target: UniProt P00374
API: returns pKi as number; meaning -log10 of concentration in mol/L.

// query Reported pKi, compound CCc1nc(N)nc(N)c1OCc1coc(-c2cccc(OCC(=O)OCc3ccccc3)c2)n1 : ____
// result 6.17

// query Reported pKi, compound CCc1nc(N)nc(N)c1OCCCOc1ccccc1CCC(=O)O [Compound P218, reference compound] : ____
// result 7.76

// query Reported pKi, compound CCc1nc(N)nc(N)c1OCCc1coc(-c2ccc(C(=O)O)cc2)n1 : ____
// result 7.76

// query Reported pKi, compound CCc1nc(N)nc(N)c1OCCCc1cc(-c2cccc(C(=O)O)c2)no1.Cl [Compound 49, Hydrochloride] : ____
// result 7.90

// query Reported pKi, compound CCc1nc(N)nc(N)c1OCc1csc(-c2ccc(F)cc2)n1 : ____
// result 6.50

// query Reported pKi, compound CCc1nc(N)nc(N)c1-c1cn(Cc2ccc(C(=O)OC)cc2)nn1 : ____
// result 6.26

// query Reported pKi, compound CCc1nc(N)nc(N)c1OCc1csc(-c2cccc([N+](=O)[O-])c2)n1 : ____
// result 6.87

// query Reported pKi, compound CCc1nc(N)nc(N)c1OCc1coc(-c2cccc(C)c2)n1 : ____
// result 6.59

* * *

assay: in vitro; conditions: African green monkey
Please provide measured IC50 for the entries that follow.

// query Reported IC50, compound CCc1nc(N)nc(N)c1OCCCc1cc(-c2cccc(C(=O)O)c2)no1.Cl [Compound 49, Hydrochloride] : ____
// result > 100 µM

// query Reported IC50, compound CCc1nc(N)nc(N)c1OCc1coc(-c2ccc(OCC(=O)OCc3ccccc3)cc2)n1 : ____
// result > 100 µM

// query Reported IC50, compound CCc1nc(N)nc(N)c1OCc1csc(-c2ccc(C(=O)OC)cc2)n1 : ____
// result > 50 µM

// query Reported IC50, compound CCc1nc(N)nc(N)c1OCCc1cn(Cc2ccc(O)cc2)nn1 : ____
// result > 50 µM

* * *

Please provide measured melting point for the entries that follow.
Structures can show the parent of a compound that is named as a salt.

// query Reported melting point, molecule CCc1nc(N)nc(N)c1OCCc1cn(Cc2ccc(O)cc2)nn1 (as salt: hydrochloride) : ____
// result 213 to 215 °C

// query Reported melting point, molecule CCc1nc(N)nc(N)c1-c1cn(CCCc2ccccc2)nn1 (as salt: hydrochloride) : ____
// result 233 to 235 °C

// query Reported melting point, molecule CCc1nc(N)nc(N)c1OCc1coc(-c2cccc(OCC(=O)OCc3ccccc3)c2)n1 (as salt: hydrochloride) (hydrate or solvate) : ____
// result 163.5 to 164.5 °C

// query Reported melting point, molecule CCc1nc(N)nc(N)c1OCc1cc(-c2ccc(Br)cc2)no1 (as salt: hydrochloride) : ____
// result 238 to 239.5 °C

// query Reported melting point, molecule CCc1nc(N)nc(N)c1-c1cn(CCCOc2ccc(Cl)cc2)nn1 (as salt: hydrochloride) : ____
// result 222.5 to 223.5 °C

// query Reported melting point, molecule CCc1nc(N)nc(N)c1-c1cn(CCOc2ccc(C(=O)OC)cc2)nn1 (as salt: hydrochloride) : ____
// result 225 to 226 °C

// query Reported melting point, molecule CCc1nc(N)nc(N)c1OCc1cn(Cc2cc(F)c(O)c(F)c2)nn1 (as salt: hydrochloride) : ____
// result 224.7 to 226 °C

// query Reported melting point, molecule CCc1nc(N)nc(N)c1OCc1coc(-c2ccc(Cl)cc2)n1 (as salt: hydrochloride) : ____
// result 239 to 240 °C

// query Reported melting point, molecule CCc1nc(N)nc(N)c1OCc1coc(-c2cccc(OCC(=O)O)c2)n1 (as salt: hydrochloride) (hydrate or solvate) : ____
// result 203 to 204 °C

// query Reported melting point, molecule CCc1nc(N)nc(N)c1OCc1csc(-c2ccc(C(=O)O)cc2)n1 (as salt: hydrochloride) : ____
// result 213 to 214 °C

// query Reported melting point, molecule CCc1nc(N)nc(N)c1OCc1coc(-c2cccc([N+](=O)[O-])c2)n1 (as salt: hydrochloride) : ____
// result 221.5 to 222.5 °C

// query Reported melting point, molecule CCc1nc(N)nc(N)c1OCc1csc(-c2ccc(OCC(=O)OCc3ccccc3)cc2)n1 (as salt: hydrochloride) (hydrate or solvate) : ____
// result 178 to 180 °C

// query Reported melting point, molecule CCc1nc(N)nc(N)c1OCc1csc(-c2ccc(C(=O)OC)cc2)n1 (as salt: hydrochloride) : ____
// result 217 to 219 °C

// query Reported melting point, molecule CCc1nc(N)nc(N)c1OCc1csc(-c2ccc(OCC(=O)O)cc2)n1 (as salt: hydrochloride) (hydrate or solvate) : ____
// result 203.5 to 205.5 °C

* * *

Please provide measured pKi for the entries that follow.
Target protein (sequence): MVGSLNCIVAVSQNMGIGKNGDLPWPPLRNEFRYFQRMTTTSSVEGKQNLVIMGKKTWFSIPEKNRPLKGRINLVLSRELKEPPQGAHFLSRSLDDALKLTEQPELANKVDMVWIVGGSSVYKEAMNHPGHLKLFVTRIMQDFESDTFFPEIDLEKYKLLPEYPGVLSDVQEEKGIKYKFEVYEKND
API: returns pKi as number; meaning -log10 of concentration in mol/L.

// query Reported pKi, compound CCc1nc(N)nc(N)c1-c1cn(Cc2ccccc2)nn1 : ____
// result 5.50

// query Reported pKi, compound CCc1nc(N)nc(N)c1OCc1cc(-c2cccc(C(=O)O)c2)no1 : ____
// result 6.55

// query Reported pKi, compound CCc1nc(N)nc(N)c1OCc1csc(-c2ccc(C(=O)O)cc2)n1 : ____
// result 6.52

// query Reported pKi, compound CCc1nc(N)nc(N)c1OCc1csc(-c2ccc(OCC(=O)OCc3ccccc3)cc2)n1 : ____
// result 6.85

// query Reported pKi, compound CCc1nc(N)nc(N)c1OCCCc1cc(-c2cccc(C(=O)OC)c2)no1 : ____
// result 7.60

// query Reported pKi, compound CCc1nc(N)nc(N)c1OCc1csc(-c2ccccc2)n1 : ____
// result 6.56

// query Reported pKi, compound CCc1nc(N)nc(N)c1OCc1coc(-c2ccccc2)n1 : ____
// result 6.53

// query Reported pKi, compound CCc1nc(N)nc(N)c1OCCCc1cn(-c2cccc(C(=O)O)c2)nn1 : ____
// result 7.64

// query Reported pKi, compound CCc1nc(N)nc(N)c1-c1cn(Cc2ccc(C(=O)O)cc2)nn1 : ____
// result 6.71

// query Reported pKi, compound CCc1nc(N)nc(N)c1OCc1cc(-c2ccc(OC)cc2)no1 : ____
// result 5.78

// query Reported pKi, compound CCc1nc(N)nc(N)c1OCCc1csc(-c2ccccc2)n1 : ____
// result 7.68

* * *

biological target: quadruple mutant N51I + C59R + S108N + I164L (QM) pfDHFR (Plasmodium falciparum, UniProt P13922, I164L/N51I); test: Inhibition of quadruple mutant pfDHFR (Ki); type: biochemical
Sequence (P13922 whole entry N51I/I164L): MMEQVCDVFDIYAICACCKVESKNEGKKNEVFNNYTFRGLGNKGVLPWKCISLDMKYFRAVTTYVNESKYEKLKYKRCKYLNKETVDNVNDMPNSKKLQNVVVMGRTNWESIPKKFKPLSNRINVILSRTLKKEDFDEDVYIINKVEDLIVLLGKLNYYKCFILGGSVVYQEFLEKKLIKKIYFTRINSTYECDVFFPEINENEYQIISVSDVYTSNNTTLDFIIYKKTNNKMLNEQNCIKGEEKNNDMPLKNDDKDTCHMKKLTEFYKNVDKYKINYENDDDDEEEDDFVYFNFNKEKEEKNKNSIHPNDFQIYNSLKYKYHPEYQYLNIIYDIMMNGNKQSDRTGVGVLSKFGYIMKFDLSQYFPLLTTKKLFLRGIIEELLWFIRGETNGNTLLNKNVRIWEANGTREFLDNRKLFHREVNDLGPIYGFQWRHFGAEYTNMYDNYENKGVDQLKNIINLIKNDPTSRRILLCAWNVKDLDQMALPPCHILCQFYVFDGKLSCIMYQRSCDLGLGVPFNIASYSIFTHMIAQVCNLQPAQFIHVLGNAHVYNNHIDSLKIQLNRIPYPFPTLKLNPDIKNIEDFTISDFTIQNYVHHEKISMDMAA
MEASURED PARAMETER: log10 Ki (log10 of the value in µM)
In plain terms, each number is the log10 of measured Ki in µM.

// query Reported log10 Ki, compound CCc1nc(N)nc(N)c1OCc1cc(-c2cccc(OC)c2)no1 [Compound 38] : ____
// result -1.64

// query Reported log10 Ki, compound CCc1nc(N)nc(N)c1OCc1cn(-c2cccc([N+](=O)[O-])c2)nn1 [Compound 14] : ____
// result -0.63

// query Reported log10 Ki, compound CCc1nc(N)nc(N)c1OCc1csc(-c2ccc(Cl)cc2)n1 [Compound 70] : ____
// result -1.52

// query Reported log10 Ki, compound CCc1nc(N)nc(N)c1OCc1csc(-c2cccc(OCC(=O)OCc3ccccc3)c2)n1 [Compound 63] : ____
// result -1.47

// query Reported log10 Ki, compound CCc1nc(N)nc(N)c1OCc1cc(-c2ccc([N+](=O)[O-])cc2)no1 [Compound 43] : ____
// result -0.51

// query Reported log10 Ki, compound CCc1nc(N)nc(N)c1OCCc1cn(Cc2ccc(O)cc2)nn1 [Compound 30] : ____
// result -0.12

// query Reported log10 Ki, compound CCc1nc(N)nc(N)c1OCCCc1cn(-c2ccc(C(=O)O)cc2)nn1 [Compound 25] : ____
// result -2.45

// query Reported log10 Ki, compound CCc1nc(N)nc(N)c1OCc1csc(-c2cccc(OCC(=O)O)c2)n1 [Compound 64] : ____
// result -1.38

// query Reported log10 Ki, compound CCc1nc(N)nc(N)c1OCc1cc(-c2cccc(C(=O)O)c2)no1 [Compound 40] : ____
// result -2.67

// query Reported log10 Ki, compound CCc1nc(N)nc(N)c1OCc1csc(-c2ccc(OCC(=O)OCc3ccccc3)cc2)n1 [Compound 72] : ____
// result -1.52

// query Reported log10 Ki, compound CCc1nc(N)nc(N)c1-c1cn(CCCOc2ccc(C(=O)OC)cc2)nn1 [Compound 12] : ____
// result -1.47

// query Reported log10 Ki, compound CCc1nc(N)nc(N)c1OCCCc1cn(Cc2ccc(C(=O)O)cc2)nn1 [Compound 32] : ____
// result -2.33

// query Reported log10 Ki, compound CCc1nc(N)nc(N)c1OCc1csc(-c2ccc(F)cc2)n1 [Compound 69] : ____
// result -1.34

// query Reported log10 Ki, compound CCc1nc(N)nc(N)c1OCc1csc(-c2ccccc2)n1 [Compound 60] : ____
// result -1.41

// query Reported log10 Ki, compound CCc1nc(N)nc(N)c1OCc1coc(-c2ccccc2)n1 [Compound 50] : ____
// result -1.25

// query Reported log10 Ki, compound CCc1nc(N)nc(N)c1OCc1cn(Cc2cc(F)c(O)c(F)c2)nn1 [Compound 27] : ____
// result -0.55

// query Reported log10 Ki, compound CCc1nc(N)nc(N)c1OCc1cc(-c2ccc(F)cc2)no1 [Compound 34] : ____
// result -1.11

// query Reported log10 Ki, compound CCc1nc(N)nc(N)c1OCc1coc(-c2cccc([N+](=O)[O-])c2)n1 [Compound 52] : ____
// result -1.03
